Where do the numbers come from? From patent US20240309015A1.

Measured KRas wild type: % inh., listed per entry for reference.
# Tested on: KRas wild type
# assay_overview: Ras GTP Binding Domain Inhibition Assay, KRas wild type
# applied_conditions: at 20 μM; without SOS

COCCCCn1c(-c2nccn2C)nc2sc(-c3ccn(C(C)C)n3)c(C)c2c1=O ... 0 (0 = 0% inhibition)

Please examine the following record next.
compound COC1CCCN(c2nc(-c3nccn3C)nc3sc(-c4ccn(C(C)C)n4)c(C)c23)C1 (racemic) , KRas wild type: % inh. observed: 0 (0 = 0% inhibition)

---

# System: KRas G12D mutant
# assay_overview: Ras GTP Binding Domain Inhibition Assay, KRas G12D mutant
# applied_conditions: at 20 μM; without SOS; Table 7
observable: KRas G12D mutant: % inh.

response.value for "COCCCn1c(-c2nccn2C)nc2sc(-c3ccn(C(C)C)n3)c(C)c2c1=O" (field: KRas G12D mutant: % inh.) = 0 (0 = 0% inhibition)

---

# System: Rho-A
# assay_overview: Ras GTP Binding Domain Inhibition Assay, Rho-A
# applied_conditions: at 20 μM; without SOS
observable: Rho-A: % inh.

The reported value for "COCCCCOc1nc(-c2nccn2C)nc2sc(-c3ccn(C(C)C)n3)c(C)c12" in terms of Rho-A: % inh. is 0 (0 = 0% inhibition)

---

# Test system: Rho-A
# assay_overview: Ras GTP Binding Domain Inhibition Assay, Rho-A
# applied_conditions: at 20 μM; without SOS
observable: Rho-A: % inh.

Considering COc1cccc(-c2sc3nc(-c4nccn4C)nc(N[C@@H]4CC[C@@H](OC)C4)c3c2-c2ccccc2)c1F (racemic) [Compound 41] , its Rho-A: % inh. with Rho-A was recorded as 0 (0 = 0% inhibition)

---

# Test system: KRas wild type
# assay_overview: Ras GTP Binding Domain Inhibition Assay, KRas wild type
# applied_conditions: at 20 μM; without SOS
observable: KRas wild type: % inh.

COCCCn1c(-c2nccn2C)nc2sc(-c3ccn(C(C)C)n3)c(-c3ccccc3)c2c1=O [Compound 36] ... A (A = 1-25% inhibition)
COCCCn1c(-c2nccn2C)nc2sc(-c3ccn(C(C)C)n3)c(C)c2c1=O [Compound 31] ... A (A = 1-25% inhibition)

---

# Tested on: KRas G12D mutant
# assay_overview: Ras GTP Binding Domain Inhibition Assay, KRas G12D mutant
# applied_conditions: at 20 μM; without SOS; Table 7
observable: KRas G12D mutant: % inh.

Looking up "COCCCCn1c(-c2nccn2C)nc2sc(-c3ccn(C(C)C)n3)c(C)c2c1=O" , I see its KRas G12D mutant: % inh. listed as 0 (0 = 0% inhibition)

---

# Test system: KRas G12D mutant
# assay_overview: Ras GTP Binding Domain Inhibition Assay, KRas G12D mutant
# applied_conditions: at 20 μM; without SOS; Table 8
observable: KRas G12D mutant: % inh.

COCCCCn1c(-c2nccn2C)nc2sc(-c3ccn(C(C)C)n3)c(C)c2c1=O ... 0 (0 = 0% inhibition)
COCCCOc1nc(-c2nccn2C)nc2sc(-c3ccn(C(C)C)n3)c(-c3ccccc3)c12 ... 0 (0 = 0% inhibition)
COc1cc(Cn2c(-c3nccn3C)nc3sc(-c4ccn(C(C)C)n4)c(C)c3c2=O)ncn1 ... A (A = 1-25% inhibition)
COc1cccc(-c2sc3nc(-c4nccn4C)nc(N[C@@H]4CC[C@@H](OC)C4)c3c2C)c1F (racemic) ... A (A = 1-25% inhibition)
